This collection of values is drawn from PubChem BioAssay AID504648.

assay: Nrf2 qHTS screen for inhibitors: counterscreen for cytotoxicity; details: A549 ARE-Fluc cells, CellTiter-Fluor viability, 18-24 h; series mostly up to 46 µM
Among all 390,000 compounds or so, about 610 (0.16%) were called active. Another 4% or so got no clear call; they are omitted. Calls follow the shape of the dose curve; as a rule, active = well fitted inhibition curve with a large enough effect; inconclusive = small, poorly fitted or top-dose-only effect, or effect the other way, or another doubt; inactive = no such curve, though single readings can be large or run the other way. Shown is part of a subset that was picked to be rich in actives.
I would appreciate it if you answered using one of these outcomes: active, inactive

Returns: the outcome recorded for C=C1CCN(C(CC(C)C)C(=O)N2CCOCC2)S(=O)(=O)c2ccccc21 (centres undefined) in this assay.
inactive

Then this molecule: Cc1cccc(C)c1-n1c(C)cc(/C=C2\C(=O)NN(c3ccccc3)C2=O)c1C
active

Then this molecule: CCN1CCN(CCCNC(=O)c2ccc3c(c2)sc2nc(-c4ccc(OC)cc4)cn23)CC1
inactive

Then this molecule: COc1ccc(C(=O)N(Cc2ccccc2)Cc2ccc(OC)c(COc3ccc(NC(C)=O)cc3)c2)c(O)c1
inactive

Then this molecule: COc1ccc(C2=Nn3c(nnc3-c3ccccc3O)SC2)cc1
inactive

Then this molecule: COc1ccc(C2Nc3ccccc3C(=O)N2Cc2ccc(Cl)cc2)cc1COc1ccc(NC(C)=O)cc1 (centres undefined)
inactive

Then this molecule: OCCNc1ncnc2oc(-c3ccco3)c(-c3ccco3)c12
inactive

Then this molecule: Cc1ccc(NC(=O)C(Cc2ccccc2)NS(=O)(=O)c2ccc3c(c2)oc(=O)n3C)cc1C (centres undefined)
inactive

Then this molecule: COc1ccc(C2/C=C\CN(C(=O)c3ccc(C)cc3)C(Cc3ccccc3)C(=O)N2Cc2ccc(F)cc2)cc1 (centres undefined)
inactive
